substrate: O=C(O)C(=O)CC(O)C(=O)O; assay: purified protein; assay type: biochemical, Homo sapiens; details: racemic HOG, 100 mM TRIS pH 8.5, 37°C, aldol cleavage
RECORDED ENDPOINT: kcat/Km (M⁻¹ s⁻¹)
Numbers only, in M⁻¹ s⁻¹.

So what does the record say about kcat/Km for human HOGA (hHOGA) (Homo sapiens; Y140F) (protein, His-tag (WT, Y140F) cleavable by PreScission leaving GPH, 33,097 Da tag-free; S77, N78 and S198 mutants as MBP fusion, MBP cleaved; tetramer) ASGEGKKVDIAGIYPPVTTPFTATAEVDYGKLEENLHKLGTFPFRGFVVQGSNGEFPFLTSSERLEVVSRVRQAMPKNRLLLAGSGCESTQATVEMTVSMAQVGADAAMVVTPCFYRGRMSSAALIHHYTKVADLSPIPVVLYSVPANTGLDLPVDAVVTLSQHPNIVGMKDSGGDVTRIGLIVHKTRKQDFQVLAGSAGFLMASYALGAVGGVCALANVLGAQVCQLERLCCTGQWEDAQKLQHRLIEPNAAVTRRFGIPGLKKIMDWFGYYGGPCRAPLQELSPAEEEALRMDFTSNGWL ?
650000
